All figures here come from ChEMBL document CHEMBL1132811.

experimentalSystem: Muscarinic acetylcholine receptor M2 (Sus scrofa)
Sequence (P06199 whole entry): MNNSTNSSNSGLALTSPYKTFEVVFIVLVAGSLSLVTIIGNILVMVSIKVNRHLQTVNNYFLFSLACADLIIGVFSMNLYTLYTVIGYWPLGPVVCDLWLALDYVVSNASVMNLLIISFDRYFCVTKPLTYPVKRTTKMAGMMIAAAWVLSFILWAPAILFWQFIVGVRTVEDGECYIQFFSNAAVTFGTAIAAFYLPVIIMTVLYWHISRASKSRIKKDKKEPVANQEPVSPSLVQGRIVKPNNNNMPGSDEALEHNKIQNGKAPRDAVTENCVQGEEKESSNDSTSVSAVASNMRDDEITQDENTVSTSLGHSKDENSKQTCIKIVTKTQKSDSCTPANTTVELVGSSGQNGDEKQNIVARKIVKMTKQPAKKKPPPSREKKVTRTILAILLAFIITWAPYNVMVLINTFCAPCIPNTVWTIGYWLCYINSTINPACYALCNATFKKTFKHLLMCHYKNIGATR
protocolDetails: Allosteric inhibition of [3H]NMS (N-methyl-scopolamine) dissociation from porcine cardiac Muscarinic acetylcholine receptor M2
A collection of molecules and their measured pEC50
Units for pEC50: none; it is -log10 of a concentration expressed in mol/L.

INSERT INTO measurements (molecule, recordednumber) VALUES
  ('C=CC[N+]12CCC34c5ccccc5N5[C@@H]6OCC=C7C[N+]8(CC=C)CCC9%10c%11ccccc%11N([C@@H]%11OCC=C(C1)[C@H](C[C@@H]32)[C@@H]%11[C@H]54)[C@H]9[C@H]6[C@H]7C[C@@H]%108 (some centres undefined)', 8.52),
  ('FC(F)(F)c1ccc(C[N+]23CCC45c6ccccc6N6[C@@H]7OCC=C8C[N+]9(Cc%10ccc(C(F)(F)F)cc%10)CCC%10%11c%12ccccc%12N([C@@H]%12OCC=C(C2)[C@H](C[C@@H]43)[C@@H]%12[C@H]65)[C@H]%10[C@H]7[C@H]8C[C@@H]%119)cc1 (some centres undefined)', 5.76),
  ('Brc1ccc(C[N+]23CCC45c6ccccc6N6[C@@H]7OCC=C8C[N+]9(Cc%10ccc(Br)cc%10)CCC%10%11c%12ccccc%12N([C@@H]%12OCC=C(C2)[C@H](C[C@@H]43)[C@@H]%12[C@H]65)[C@H]%10[C@H]7[C@H]8C[C@@H]%119)cc1 (some centres undefined)', 6.29);

Field pEC50 (system: Muscarinic acetylcholine receptor M2 (Sus scrofa)) for entry O=C1c2ccccc2C(=O)N1CCC[N+]12CCC34c5ccccc5N5[C@@H]6OCC=C7C[N+]8(CCCN9C(=O)c%10ccccc%10C9=O)CCC9%10c%11ccccc%11N([C@@H]%11OCC=C(C1)[C@H](C[C@@H]32)[C@@H]%11[C@H]54)[C@H]9[C@H]6[C@H]7C[C@@H]%108 (some centres undefined) = 6.42
